Test system: CCRIS mutagenicity, Ames/micronucleus/aberration tests
assay.details: CCRIS mutagenicity studies
run.parameters: Test System: AMES SALMONELLA TYPHIMURIUM; Strain/Indicator: TA1538; Metabolic Activation: HAMSTER, LIVER, S-9; Method: STANDARD PLATE
The source made the active and inactive calls. The rule behind the calls is not given here.
Labels: true (active), false (inactive)

>>> print(df.to_string())
                                 cpd_smiles  classification
0  COc1cc(-c2ccc(N/N=C3\C=C(S(=O)(=O)O)c4ccccc4C3=O)c(OC)c2)ccc1N=Nc1cc(S(=O)(=O)O)c2ccccc2c1N           false
1                              CC1(C)COC1=O           false
2                                 Nc1ccccc1           false
3             Nc1ccc2c(c1)C(=O)c1ccccc1C2=O            true

Ref: PubChem BioAssay AID1259407
